molecular target: T1, human serum albumin (Sigma) (human, UniProt P02768 25-609); assay: ELISA, periplasmic extract on coated HSA (1 µg/mL), anti-FLAG-HRP
T1 construct: Negative control coat; also called HSA
T1 sequence (P02768 25-609 limits assumed): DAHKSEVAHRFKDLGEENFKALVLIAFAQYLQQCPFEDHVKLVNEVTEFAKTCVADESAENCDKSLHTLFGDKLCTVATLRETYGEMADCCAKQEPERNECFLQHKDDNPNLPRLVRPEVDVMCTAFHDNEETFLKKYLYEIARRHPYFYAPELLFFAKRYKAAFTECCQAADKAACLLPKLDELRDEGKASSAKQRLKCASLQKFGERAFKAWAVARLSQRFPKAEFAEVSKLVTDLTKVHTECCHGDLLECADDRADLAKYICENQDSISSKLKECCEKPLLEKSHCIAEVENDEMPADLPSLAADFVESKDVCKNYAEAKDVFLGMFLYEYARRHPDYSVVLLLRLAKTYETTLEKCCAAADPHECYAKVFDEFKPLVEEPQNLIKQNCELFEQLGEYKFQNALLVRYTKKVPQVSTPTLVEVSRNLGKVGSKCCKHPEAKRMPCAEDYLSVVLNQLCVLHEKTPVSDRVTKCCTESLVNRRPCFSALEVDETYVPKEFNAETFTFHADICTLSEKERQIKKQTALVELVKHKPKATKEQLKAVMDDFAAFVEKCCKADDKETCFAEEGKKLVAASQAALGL
reported_property: binding result

Check out these entries, answers already filled in.
- binder: "ID2-101C01 (VNAR, Nurse shark VNAR single domain, monomer) VNAR: AARVDQTPQTITKETGESLTINCVLRDNNCALSTTYWYRKKSGSTNEENISKGGRYVETVNSGSKSFSLRINDLTVEDSGTYRCKVRLDLLLCRNGSTNSIDVYGGGTAVTVNA"
  binding result: "no binding"
- binder: "ID2-101B10 (VNAR, Nurse shark VNAR single domain, monomer) VNAR: AARVDQTPQTITKETGESLTINCVLRDSNCALSSTYWYRKKSGSTNEESISKGGRYVETVNSGSKSFSLRINDLTVEDSGTYRCKVRIDPLLCNASYVKWDDVYGGGTVVTVNA"
  binding result: "no binding"
- binder: "ID2-101A03 (VNAR, Nurse shark VNAR single domain, monomer) VNAR: AARVDQTPQTITKETGESLTINCVLRDNNCALSTTYWYRKKSGSTNEENISKGGRYVETVNSGSKSFSLKINDLTVEDSGTYRCKVRVDRLLCGWRVGRRQLGDVYGGGTVVTVNA"
  binding result: "no binding"
- binder: "ID2-101A07 (VNAR, Nurse shark VNAR single domain, tested as monomer) VNAR: AARVDQTPQTITKETGESLTINCVLRDSNCALSNLYWYRKKSGSTNEESISLGGRYVETVNSGSKSFSLRINDLTVEDSGTYRCKVQLPYDPLTKECILGRMDVYGDGTAVTVNA"
  binding result: "no binding"
- binder: "ID2-101B12 (VNAR, Nurse shark VNAR single domain, monomer) VNAR: AARVDQTPQTITKETGESLTINCVLRDSNCALSSTYWYRKKSGSTNEESISKGGRYVETVNSGSKSFSLRINDLTVEDSGTYRCKVFIDPLLCSRDALGFSDVYGDGTAVTVNA"
  binding result: "no binding"
- binder: "ID2-101B11 (VNAR, Nurse shark VNAR single domain, monomer) VNAR: AARVDQTPRSVTKETGESLTINCVLRDSNCALSSTYWYRKKSGSTNEENISKGGRYVETVNSGSKSFSLRINDLTVEDSGTYRCKVMLDPLLCPALLESMTDVYGGGTAVTVNA"
  binding result: "no binding"
- binder: "ID2-101B01 (VNAR, Nurse shark VNAR single domain, monomer) VNAR: AARVDQTPQTITKETGESLTINCVLRDSNCALSSTYWYRKKSGSTNEESISKGGRYVETVNSGSKSFSLRINDLTVEDSGTYRCNVAPTIISGCSIKRRDVYGGGTAVTVNA"
  binding result: "no binding"
- binder: "ID2-101B05 (VNAR, Nurse shark VNAR single domain, monomer) VNAR: AARVDQTPRSVTKETGESLTINCVLRDSICALSSTHWYRKKSGSTNEESISKGGRYVETVNSGSKSFSLRINDLTVEDSGTYRCKVNHDLLTSSRRCQSQIKDVYGGGTVVTVNA"
  binding result: "no binding"

Next up:
Query block: Query (binder): ID2-101A05 (VNAR, Nurse shark VNAR single domain, tested as monomer) VNAR: AARVDQTPQTITKETGESLTINCVLRDNNCALSTTYWYRKKSGSTNEENISKGGRYVETVNSGSKSFSLRINDLTVEDSGTYRCKVSKDWLLCRDRGRRETDVYGDGTAVTVNA ; field requested: binding result
Result block: no binding
